- Tested on: DU-145 prostate
- method_summary: NCI tumour cell line growth inhibition, 48 h
Where a SMILES comes first, the peptide text is derived from it. [ ]: non-standard residue; d: D form. Ava = NCCCCC(=O)O; Mpa = O=C(O)CCS
measure: TGI

Worked examples follow.
COc1ccc(SCc2cc(OC)ccc2OC)cc1 ... > 100 µM
CCOC(CBr)OC1C(=O)OCC1(C)C (stereo not given) ... > 100 µM
Nc1n[n+]([O-])c2ccc(Cl)cc2[n+]1[O-] ... > 100 µM
O=C(CC(C(=O)c1ccsc1)c1cccs1)c1ccccc1 (stereo not given) ... > 100 µM
Nc1cc(CO)cc(Nc2c3ccccc3nc3ccccc23)c1 ... 73.1 µM

Considering `CC(=O)c1cc2c(Br)cccc2oc1=O` , its TGI with DU-145 prostate was recorded as > 100 µM

Considering `CC(C)(C)OC(=O)N(CCCCN(CCCn1c2c(c3ccccc3c1=O)C(=O)c1ccccc1-2)C(=O)OC(C)(C)C)CCCn1c2c(c3ccccc3c1=O)C(=O)c1ccccc1-2` , its TGI with DU-145 prostate was recorded as > 100 µM

Considering COP(=O)(OC)C(N)Cc1c[nH]c2ccccc12 (stereo not given) , its TGI with DU-145 prostate was recorded as > 100 µM

Considering CC(NC(=O)CCS)C(=O)NC(C)C(=O)NC(Cc1c[nH]c2ccccc12)C(=O)NC(Cc1c[nH]cn1)C(=O)NC(CO)C(=O)NC(Cc1c[nH]c2ccccc12)C(=O)NCCCCC(=O)NC(C)C(=O)NC(CCC(N)=O)C(=O)NC(CCCCN)C(=O)NC(C)C(=O)NC(CCCNC(=N)N)C(=O)NC(CCCCN)C(N)=O (stereo not given) ([Mpa]AAWHSW[Ava]AQKARK-NH2; configuration not given here) , its TGI with DU-145 prostate was recorded as > 100 µM

Considering `CCOC(=O)NC(Nc1ccc(F)cc1F)(C(F)(F)F)C(F)(F)F` , its TGI with DU-145 prostate was recorded as > 100 µM

Considering `NCC(=O)Nc1ccc(Cl)cc1C(=O)c1ccc[nH]1` , its TGI with DU-145 prostate was recorded as > 100 µM

Considering `CCN(Cc1ccc(Cl)c(Cl)c1)c1ccc2nc(N)nc(N)c2c1C` , its TGI with DU-145 prostate was recorded as 2 µM

Considering `COc1c(C(=O)/C(=N/Nc2ccc(C(=O)O)cc2)C(C)=O)c(O)cc2occc12` , its TGI with DU-145 prostate was recorded as > 100 µM

Considering `Cc1cccc2c(=O)c3cccc([C@H](C)C(=O)O)c3oc12` , its TGI with DU-145 prostate was recorded as > 100 µM

Considering `O=C1c2c(c3c4cc(F)ccc4oc3c3[nH]c4ccccc4c23)C(=O)N1O` , its TGI with DU-145 prostate was recorded as > 100 µM

Considering `O=C(NC(=S)Nc1ccc(Br)cc1)c1ccc2c(c1)Sc1ccccc1O2` , its TGI with DU-145 prostate was recorded as > 100 µM

Considering `COc1cc2c(cc1OC)C(CCN)=NCC2` , its TGI with DU-145 prostate was recorded as 32.9 µM

Considering `COC(=O)CNC(=O)C(=O)c1c(O)c(O)c(C(C)C)c2cc(C)c(-c3c(C)cc4c(C(C)C)c(O)c(O)c(C(=O)C(=O)NCC(=O)OC)c4c3O)c(O)c12` , its TGI with DU-145 prostate was recorded as 7.91 µM

Considering O=[N+]([O-])c1ccc2c(c1)nc1n2C(c2c(F)cccc2F)SC1 (stereo not given) , its TGI with DU-145 prostate was recorded as > 100 µM

Considering `COc1ccc2c(c1)/C(=C\c1c(Cl)nc3n1CCS3)C(=O)N2` , its TGI with DU-145 prostate was recorded as 72.5 µM

Considering CCC(C)C(Nc1c2ccccc2nc2c(C(=O)NCCN(C)C)cccc12)C(=O)O (stereo not given) , its TGI with DU-145 prostate was recorded as > 100 µM

Considering `CCN(CC)CCC(=O)/C=C/c1ccc(Cl)c(Cl)c1` , its TGI with DU-145 prostate was recorded as > 10 µM
